biological target: HLA-PEPTIDE target G8: HLA-A*02:01_…, recombinant soluble complex (human, enzymatically biotinylated (BirA) for screening and BLI); test: phage display, scFv ELISA on pHLA against negative control pHLAs
ENDPOINT_LABEL: binding result

scFv G8(5F02) (scFv, V domains shown) VH: QVQLVQSGAEVKKPGASVKVSCKASGYTFTGYYIHWVRQAPGQGLEWMGVINPSGGSTTYAQKLQGRVTMTRDTSTSTVYMELSSLRSEDTAVYYCARDRDSSWTYYYYGMDVWGQGTTVTVSS VL: EIVMTQSPATLSVSPGERATLSCRASQSVGNSLAWYQQKPGQAPRLLIYGASTRATGIPARFSGSGSGTEFTLTISSLQSEDFAVYYCQQYGSSPYTFGQGTKVEIK	binds
scFv G8(2E06) (scFv, V domains shown) VH: QVQLVQSGAEVKKPGASVKVSCKASGYTLTTYYMHWVRQAPGQGLEWMGWINPNSGGTNYAQKFQGRVTMTRDTSTSTVYMELSSLRSEDTAVYYCARAVYYDFWSGPFDYWGQGTLVTVSS VL: DIQMTQSPSSLSASVGDRVTITCRASQGISNSLAWYQQKPGKAPKLLIYAASSLQSGVPSRFSGSGSGTDFTLTISSLQPEDFATYYCQQANSFPWTFGQGTKLEIK	binds
